Biological target: EZH2 (Homo sapiens, UniProt Q15910)
Sequence (Q15910 whole entry): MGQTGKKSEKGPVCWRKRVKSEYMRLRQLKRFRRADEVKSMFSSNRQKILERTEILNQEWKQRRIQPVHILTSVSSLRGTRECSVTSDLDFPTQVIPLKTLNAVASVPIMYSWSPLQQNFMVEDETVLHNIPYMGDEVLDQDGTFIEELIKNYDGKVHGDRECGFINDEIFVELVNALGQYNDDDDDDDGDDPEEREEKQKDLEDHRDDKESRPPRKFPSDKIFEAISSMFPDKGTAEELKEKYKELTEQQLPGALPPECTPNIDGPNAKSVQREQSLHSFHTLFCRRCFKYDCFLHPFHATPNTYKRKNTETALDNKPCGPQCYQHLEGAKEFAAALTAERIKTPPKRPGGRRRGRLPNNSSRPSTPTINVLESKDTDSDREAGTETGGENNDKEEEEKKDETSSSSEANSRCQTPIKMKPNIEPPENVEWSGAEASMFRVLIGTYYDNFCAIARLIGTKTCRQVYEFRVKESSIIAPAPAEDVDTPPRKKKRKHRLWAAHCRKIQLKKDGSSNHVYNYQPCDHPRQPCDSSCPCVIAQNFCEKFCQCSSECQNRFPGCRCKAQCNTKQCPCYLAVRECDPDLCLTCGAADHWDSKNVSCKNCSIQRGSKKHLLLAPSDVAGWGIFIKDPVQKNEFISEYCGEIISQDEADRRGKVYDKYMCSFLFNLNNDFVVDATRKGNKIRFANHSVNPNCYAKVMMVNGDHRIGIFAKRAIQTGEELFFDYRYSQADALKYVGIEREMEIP
Sequence (O75530 whole entry partner): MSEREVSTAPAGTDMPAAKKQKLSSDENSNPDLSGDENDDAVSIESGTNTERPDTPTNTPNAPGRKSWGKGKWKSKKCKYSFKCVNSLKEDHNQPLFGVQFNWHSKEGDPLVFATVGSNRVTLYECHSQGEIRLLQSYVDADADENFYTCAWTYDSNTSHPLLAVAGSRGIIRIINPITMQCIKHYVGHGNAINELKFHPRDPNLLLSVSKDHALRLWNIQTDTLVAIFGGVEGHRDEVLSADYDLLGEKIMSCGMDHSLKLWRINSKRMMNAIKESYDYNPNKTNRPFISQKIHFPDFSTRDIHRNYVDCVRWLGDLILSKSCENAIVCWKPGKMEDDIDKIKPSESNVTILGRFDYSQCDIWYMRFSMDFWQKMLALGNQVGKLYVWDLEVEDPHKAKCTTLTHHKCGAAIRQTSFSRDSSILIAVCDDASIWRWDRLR
Sequence (Q15022 whole entry partner): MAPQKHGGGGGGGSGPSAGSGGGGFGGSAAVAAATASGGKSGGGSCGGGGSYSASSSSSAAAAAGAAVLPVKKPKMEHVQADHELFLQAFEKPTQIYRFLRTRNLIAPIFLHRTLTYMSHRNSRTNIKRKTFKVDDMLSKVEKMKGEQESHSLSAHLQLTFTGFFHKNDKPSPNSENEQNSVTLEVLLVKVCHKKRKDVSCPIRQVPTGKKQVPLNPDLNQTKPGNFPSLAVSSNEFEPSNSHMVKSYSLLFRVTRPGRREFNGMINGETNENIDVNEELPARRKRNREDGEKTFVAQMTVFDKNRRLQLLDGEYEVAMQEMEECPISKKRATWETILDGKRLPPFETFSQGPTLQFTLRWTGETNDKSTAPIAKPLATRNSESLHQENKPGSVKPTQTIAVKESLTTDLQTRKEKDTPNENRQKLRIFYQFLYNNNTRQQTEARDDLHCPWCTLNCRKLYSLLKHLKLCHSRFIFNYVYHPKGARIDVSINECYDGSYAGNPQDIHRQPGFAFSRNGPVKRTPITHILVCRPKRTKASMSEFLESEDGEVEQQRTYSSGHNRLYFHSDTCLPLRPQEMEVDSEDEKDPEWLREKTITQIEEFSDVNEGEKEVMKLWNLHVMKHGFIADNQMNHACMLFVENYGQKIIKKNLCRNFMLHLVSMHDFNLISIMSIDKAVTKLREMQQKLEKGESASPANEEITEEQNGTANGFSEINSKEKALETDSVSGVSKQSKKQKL
Test: EZH2 assay: rPRC2 with biotinylated oligonucleosome substrates and 3H SAM, FlashPlate scintillation counting, IC50
Format: biochemical
Settings: rPRC2, biotinylated oligonucleosome substrates, 3H SAM; read-out: EZH2 IC50
Provide the recorded IC50 for the entries that follow.

Cc1cncc(-c2ccccc2Oc2ccc(C(=O)NC3CC(C)(C)NC(C)(C)C3)cc2Cl)c1; < 5 µM
CC1(C)CC(NC(=O)c2ccc(Oc3ccccc3C(=O)NCc3ccccc3)c(Cl)c2)CC(C)(C)N1; 5 to 20 µM

# return IC50 for each item in the list
1. CC(=O)N1CCN(c2cccc(Oc3ccc(C(=O)NC4CC(C)(C)NC(C)(C)C4)cc3Cl)c2)CC1
2. CC1(C)CC(NC(=O)c2ccc(COc3cccc(-c4cncnc4)c3)cc2)CC(C)(C)N1
3. CC1(C)CC(NC(=O)c2ccc(Oc3cnccn3)cc2)CC(C)(C)N1
4. CC1(C)CC(NC(=O)c2ccc(Oc3cccc(-c4cnn(CC(=O)O)c4)c3C#N)c(Cl)c2)CC(C)(C)N1
5. CC1(C)CC(CC(=O)O)(NC(=O)c2ccc(Oc3cccc(-c4ccnnc4)c3C#N)c(Cl)c2)CC(C)(C)N1
6. CC1(C)CC(NC(=O)c2ccc(COc3cccc(-c4cccnc4N)c3)cc2)CC(C)(C)N1

Result string:
1. 20 to 80 µM
2. 20 to 80 µM
3. > 80 µM
4. < 5 µM
5. 20 to 80 µM
6. 20 to 80 µM

# return IC50 for each item in the list
1. CC(=O)Nc1ccc(-c2cccc(OCc3ccc(C(=O)NC4CC(C)(C)NC(C)(C)C4)cc3)c2)cn1
2. CC1(C)CC(NC(=O)c2ccc(Oc3cccc(-c4ccnnc4)c3C#N)c(Cl)c2)CC(C)(C)C1=O
3. CC1(C)CC(NC(=O)c2ccc(Oc3ccccc3C#N)c(-c3cncnc3)c2)CC(C)(C)N1
4. CC1(C)CC(NC(=O)c2ccc(COc3cccc(-c4ccc(=O)[nH]c4)c3)cc2)CC(C)(C)N1
5. CCN1C(C)(C)CC(NC(=O)c2ccc(Oc3ccccc3C#N)c(Cl)c2)CC1(C)C

Result string:
["< 5 µM", "< 5 µM", "5 to 20 µM", "20 to 80 µM", "5 to 20 µM"]

# return IC50 for each item in the list
1. CC1(C)CC(NC(=O)c2ccc(Oc3cccc4cccnc34)cc2)CC(C)(C)N1
2. CC1(C)CC(NC(=O)c2ccc(COc3ccccc3Br)cc2)CC(C)(C)N1

Result string:
1. 20 to 80 µM
2. 20 to 80 µM

----------
Target: EZH2 (Homo sapiens, UniProt Q15910)
Assay: EZH2 assay: rPRC2 with biotinylated oligonucleosome substrates and 3H SAM, FlashPlate scintillation counting, IC50
Assay type: biochemical
Details: rPRC2, biotinylated oligonucleosome substrates, 3H SAM; read-out: EZH2 IC50
Provide the recorded IC50 for the entries that follow.

These solved cases illustrate the format of a correct answer.
CC1(C)CC(NC(=O)c2ccc(Oc3ccccc3Cc3ccccc3)cc2)CC(C)(C)N1; 5 to 20 µM
CC1(C)CC(NC(=O)c2ccc(Oc3ccc(F)cc3C#N)cc2)CC(C)(C)N1; 20 to 80 µM
CC1(C)CC(NC(=O)c2ccc(CNc3ccccc3)cc2)CC(C)(C)N1; > 80 µM
Cc1ccc(Oc2ccc(C(=O)NC3CC(C)(C)NC(C)(C)C3)cc2)cn1; > 80 µM
CC1(C)CC(NC(=O)c2ccc(Oc3cccc(-c4ccc(C(N)=O)nc4)c3C#N)c(Cl)c2)CC(C)(C)N1; < 5 µM

# return IC50 for each item in the list
1. Cc1cc(-c2cccc(Oc3ccc(C(=O)NC4CC(C)(C)NC(C)(C)C4)cc3Cl)c2C#N)ccn1
2. CC1(C)CC(NC(=O)c2ccc3oc4c(C#N)cccc4c3c2)CC(C)(C)N1

Result string:
1. < 5 µM
2. 20 to 80 µM

Query string: Observed IC50 on EZH2 (Homo sapiens, UniProt Q15910) for `CC1(C)CC(NC(=O)c2ccc(Oc3ccccc3C(C)(C)C)c(Cl)c2)CC(C)(C)N1` , please.
Result string: 20 to 80 µM
